- Test system: K24384-001-R-PDC complex spheroids, viability
- Method notes: Anticancer human tumor K24384-001-R-PDC patient-derived pancreatic adenocarcinoma cell line growth inhibition [GQUAD]; active = viability on the fitted dose curve at most 10% of control; inactive = the rest
- Conditions used: second compound 1 µM; first compound 10 µM
- Excerpt: DNA G-quadruplex Stabilizer Agents in Combinations in Complex Spheroids A high-throughput screen of multi-cell type tumor spheroids was designed to identify active combinations of DNA G-quadruplex stabilizer agents and targeted small molecules. […] Compounds. […] If the clinical Cmax for an agent had not been determined, the highest concentration tested was 10 microM. […]
Classes to choose from: active, inactive

- Compound: "CC1COCCN1c1cc(-c2ccnn2C)c2ccnc(-c3ccn[nH]3)c2n1 (centres undefined) + Cc1cnc(CNC(=O)c2c(=O)c3ccc(N4CCCN(C)CC4)nc3n3c2sc2ccccc23)cn1"
  Assigned label: "inactive"
- Compound: "Cc1cccc(N(C)C(=O)C2C(O)CCN2c2nc(C)cc(C(F)(F)F)c2C#N)c1 (centres undefined) + CN(C)c1ccc(Nc2c3ccc(NC(=O)CCN4CCCC4)cc3nc3cc(NC(=O)CCN4CCCC4)ccc23)cc1"
  Assigned label: "inactive"
- Compound: "COc1ncnc(C2CC2)c1-c1ncc2cnn(Cc3ccc(-c4nc(C(F)(F)F)cn4C(C)C)cc3)c2n1 + Cc1cnc(CNC(=O)c2c(=O)c3ccc(N4CCCN(C)CC4)nc3n3c2sc2ccccc23)cn1"
  Assigned label: "inactive"

Query: For CC(C)n1c(=O)n(C)c2cnc3cc(F)c(-c4ccc(OCCCN5CCCCC5)nc4)cc3c21 + CN(C)c1ccc(Nc2c3ccc(NC(=O)CCN4CCCC4)cc3nc3cc(NC(=O)CCN4CCCC4)ccc23)cc1 , what call appears in the results of this test?
Result: inactive

Query: For C=CC(=O)N1CCN(c2nc(=O)n(-c3c(C)ccnc3C(C)C)c3nc(-c4c(O)cccc4F)c(F)cc23)C(C)C1 (centres undefined) + Cc1cnc(CNC(=O)c2c(=O)c3ccc(N4CCCN(C)CC4)nc3n3c2sc2ccccc23)cn1 , what call appears in the results of this test?
Result: inactive

Query: For Nc1ccn(C2OC(CO)C(O)C2(F)F)c(=O)n1 (centres undefined) + Cc1cnc(CNC(=O)c2c(=O)c3ccc(N4CCCN(C)CC4)nc3n3c2sc2ccccc23)cn1 , what call appears in the results of this test?
Result: inactive

Query: For COc1cc(C2c3cc4c(cc3C(OC3OC5COC(C)OC5C(O)C3O)C3COC(=O)C23)OCO4)cc(OC)c1O (centres undefined) + Cc1cnc(CNC(=O)c2c(=O)c3ccc(N4CCCN(C)CC4)nc3n3c2sc2ccccc23)cn1 , what call appears in the results of this test?
Result: inactive

Query: For CC1COCCN1c1cc(-c2ccnn2C)c2ccnc(-c3ccn[nH]3)c2n1 (centres undefined) + Cc1[nH]c2ccc(F)cc2c1-c1nc2c3cccnc3c3ncccc3c2[nH]1 , what call appears in the results of this test?
Result: inactive

Query: For CC(C)(O)C1CCC(Nc2ccc3ncc(-c4cccc(C(F)(F)F)c4)n3n2)CC1 (centres undefined) + Cc1cnc(CNC(=O)c2c(=O)c3ccc(N4CCCN(C)CC4)nc3n3c2sc2ccccc23)cn1 , what call appears in the results of this test?
Result: inactive

Query: For CC1COCCN1c1cc(C2(O)CC3CCC(C2)O3)c2cnn(-c3ccn[nH]3)c2n1 (centres undefined) + CN(C)c1ccc(Nc2c3ccc(NC(=O)CCN4CCCC4)cc3nc3cc(NC(=O)CCN4CCCC4)ccc23)cc1 , what call appears in the results of this test?
Result: inactive

Query: For CC(=O)O[C@H]1C(=O)[C@@]2(C)[C@H]([C@H](OC(=O)c3ccccc3)[C@]3(O)C[C@H](OC(=O)[C@H](O)[C@@H](NC(=O)c4ccccc4)c4ccccc4)C(C)=C1C3(C)C)[C@]1(OC(C)=O)CO[C@@H]1C[C@@H]2O + CN(C)c1ccc(Nc2c3ccc(NC(=O)CCN4CCCC4)cc3nc3cc(NC(=O)CCN4CCCC4)ccc23)cc1 , what call appears in the results of this test?
Result: inactive

Query: For C=CCn1c(=O)c2cnc(Nc3ccc(N4CCN(C)CC4)cc3)nc2n1-c1cccc(C(C)(C)O)n1 + Cc1cnc(CNC(=O)c2c(=O)c3ccc(N4CCCN(C)CC4)nc3n3c2sc2ccccc23)cn1 , what call appears in the results of this test?
Result: inactive

Query: For COc1cccc2c1C(=O)c1c(O)c3c(c(O)c1C2=O)CC(O)(C(=O)CO)CC3OC1CC(N)C(O)C(C)O1 (centres undefined) + CN(C)c1ccc(Nc2c3ccc(NC(=O)CCN4CCCC4)cc3nc3cc(NC(=O)CCN4CCCC4)ccc23)cc1 , what call appears in the results of this test?
Result: active

Query: For CC(=O)O[C@H]1C(=O)[C@@]2(C)[C@H]([C@H](OC(=O)c3ccccc3)[C@]3(O)C[C@H](OC(=O)[C@H](O)[C@@H](NC(=O)c4ccccc4)c4ccccc4)C(C)=C1C3(C)C)[C@]1(OC(C)=O)CO[C@@H]1C[C@@H]2O + Cc1[nH]c2ccc(F)cc2c1-c1nc2c3cccnc3c3ncccc3c2[nH]1 , what call appears in the results of this test?
Result: inactive

Query: For CC1COCCN1c1cc(C2(S(C)(=N)=O)CC2)nc(-c2ccnc3[nH]ccc23)n1 (centres undefined) + Cc1[nH]c2ccc(F)cc2c1-c1nc2c3cccnc3c3ncccc3c2[nH]1 , what call appears in the results of this test?
Result: inactive

Query: For CC1COCCN1c1cc(C2(O)CC3CCC(C2)O3)c2cnn(-c3ccn[nH]3)c2n1 (centres undefined) + Cc1[nH]c2ccc(F)cc2c1-c1nc2c3cccnc3c3ncccc3c2[nH]1 , what call appears in the results of this test?
Result: inactive

Query: For COc1cc(C2c3cc4c(cc3C(OC3OC5COC(C)OC5C(O)C3O)C3COC(=O)C23)OCO4)cc(OC)c1O (centres undefined) + Cc1[nH]c2ccc(F)cc2c1-c1nc2c3cccnc3c3ncccc3c2[nH]1 , what call appears in the results of this test?
Result: inactive

Query: For C=CCn1c(=O)c2cnc(Nc3ccc(N4CCN(C)CC4)cc3)nc2n1-c1cccc(C(C)(C)O)n1 + Cc1[nH]c2ccc(F)cc2c1-c1nc2c3cccnc3c3ncccc3c2[nH]1 , what call appears in the results of this test?
Result: inactive

Query: For COc1ncnc(C2CC2)c1-c1ncc2cnn(Cc3ccc(-c4nc(C(F)(F)F)cn4C(C)C)cc3)c2n1 + CN(C)c1ccc(Nc2c3ccc(NC(=O)CCN4CCCC4)cc3nc3cc(NC(=O)CCN4CCCC4)ccc23)cc1 , what call appears in the results of this test?
Result: inactive

###

- System: K24384-001-R-PDC complex spheroids, viability
- Method notes: Anticancer human tumor K24384-001-R-PDC cell line growth inhibition [GQUAD];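 also: spheroids exposed to compounds for seven days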
- Conditions used: second compound 10 µM; first compound 0.00999 µM; hits give low values
Measured quantity: viability, T/C

- Compound: "Cc1[nH]c2ccccc2c1CCNCc1ccc(/C=C/C(=O)NO)cc1 + Cc1cnc(CNC(=O)c2c(=O)c3ccc(N4CCCN(C)CC4)nc3n3c2sc2ccccc23)cn1"
  viability, T/C: "0.28%"
- Compound: "Cc1[nH]c2ccccc2c1CCNCc1ccc(/C=C/C(=O)NO)cc1 + CN(C)c1ccc(Nc2c3ccc(NC(=O)CCN4CCCC4)cc3nc3cc(NC(=O)CCN4CCCC4)ccc23)cc1"
  viability, T/C: "101%"
- Compound: "Cc1[nH]c2ccccc2c1CCNCc1ccc(/C=C/C(=O)NO)cc1 + Cc1[nH]c2ccc(F)cc2c1-c1nc2c3cccnc3c3ncccc3c2[nH]1"
  viability, T/C: "77.2%"
- Compound: "CCc1c2c(nc3ccc(O)cc13)-c1cc3c(c(=O)n1C2)COC(=O)[C@]3(O)CC + Cc1[nH]c2ccc(F)cc2c1-c1nc2c3cccnc3c3ncccc3c2[nH]1"
  viability, T/C: "43.8%"
- Compound: "CC[C@@]1(O)C(=O)OCc2c1cc1n(c2=O)Cc2cc3c(CN(C)C)c(O)ccc3nc2-1 + Cc1[nH]c2ccc(F)cc2c1-c1nc2c3cccnc3c3ncccc3c2[nH]1"
  viability, T/C: "66.4%"
- Compound: "CCc1c2c(nc3ccc(O)cc13)-c1cc3c(c(=O)n1C2)COC(=O)[C@]3(O)CC + Cc1cnc(CNC(=O)c2c(=O)c3ccc(N4CCCN(C)CC4)nc3n3c2sc2ccccc23)cn1"
  viability, T/C: "13.3%"
- Compound: "CC[C@@]1(O)C(=O)OCc2c1cc1n(c2=O)Cc2cc3c(CN(C)C)c(O)ccc3nc2-1 + Cc1cnc(CNC(=O)c2c(=O)c3ccc(N4CCCN(C)CC4)nc3n3c2sc2ccccc23)cn1"
  viability, T/C: "36.3%"
- Compound: "Cn1ncnc1[C@H]1c2n[nH]c(=O)c3cc(F)cc(c23)N[C@@H]1c1ccc(F)cc1 + Cc1[nH]c2ccc(F)cc2c1-c1nc2c3cccnc3c3ncccc3c2[nH]1"
  viability, T/C: "57.2%"

Query: Let me know recorded viability, T/C for CCc1c2c(nc3ccc(O)cc13)-c1cc3c(c(=O)n1C2)COC(=O)[C@]3(O)CC + CN(C)c1ccc(Nc2c3ccc(NC(=O)CCN4CCCC4)cc3nc3cc(NC(=O)CCN4CCCC4)ccc23)cc1 , thanks.
Result: 59.4%

Query: Let me know recorded viability, T/C for Cn1ncnc1[C@H]1c2n[nH]c(=O)c3cc(F)cc(c23)N[C@@H]1c1ccc(F)cc1 + CN(C)c1ccc(Nc2c3ccc(NC(=O)CCN4CCCC4)cc3nc3cc(NC(=O)CCN4CCCC4)ccc23)cc1 , thanks.
Result: 82.9%

Query: Let me know recorded viability, T/C for Cn1ncnc1[C@H]1c2n[nH]c(=O)c3cc(F)cc(c23)N[C@@H]1c1ccc(F)cc1 + Cc1cnc(CNC(=O)c2c(=O)c3ccc(N4CCCN(C)CC4)nc3n3c2sc2ccccc23)cn1 , thanks.
Result: 37.7%

Query: Let me know recorded viability, T/C for CC[C@@]1(O)C(=O)OCc2c1cc1n(c2=O)Cc2cc3c(CN(C)C)c(O)ccc3nc2-1 + CN(C)c1ccc(Nc2c3ccc(NC(=O)CCN4CCCC4)cc3nc3cc(NC(=O)CCN4CCCC4)ccc23)cc1 , thanks.
Result: 105%

Source listed as PubChem BioAssay AID2060483.
